Each record here notes measured pIC50.
tested on: SK-OV-3; experiment: Cytotoxicity against human SKOV3 cells; type: functional, cell-based
Reminder that pIC50 is minus the log10 of a molar concentration.

Considering COc1cc(O)c2c(c1)[C@H]1O[C@@H]1C[C@H](O)[C@H](O)C(=O)/C=C\C[C@H](C)OC2=O , its pIC50 with SK-OV-3 was recorded as 5.23

Now take the following molecule into account.
Recorded pIC50 for C[C@H]1C/C=C\C(=O)[C@@H](O)[C@@H](O)C[C@H]2O[C@@H]2c2cc(O)cc(O)c2C(=O)O1 on SK-OV-3 was 5.74
